# IC50 per entry
# experimental_system: PI3Kα (Homo sapiens, UniProt P42336)
# Sequence (P42336 whole entry): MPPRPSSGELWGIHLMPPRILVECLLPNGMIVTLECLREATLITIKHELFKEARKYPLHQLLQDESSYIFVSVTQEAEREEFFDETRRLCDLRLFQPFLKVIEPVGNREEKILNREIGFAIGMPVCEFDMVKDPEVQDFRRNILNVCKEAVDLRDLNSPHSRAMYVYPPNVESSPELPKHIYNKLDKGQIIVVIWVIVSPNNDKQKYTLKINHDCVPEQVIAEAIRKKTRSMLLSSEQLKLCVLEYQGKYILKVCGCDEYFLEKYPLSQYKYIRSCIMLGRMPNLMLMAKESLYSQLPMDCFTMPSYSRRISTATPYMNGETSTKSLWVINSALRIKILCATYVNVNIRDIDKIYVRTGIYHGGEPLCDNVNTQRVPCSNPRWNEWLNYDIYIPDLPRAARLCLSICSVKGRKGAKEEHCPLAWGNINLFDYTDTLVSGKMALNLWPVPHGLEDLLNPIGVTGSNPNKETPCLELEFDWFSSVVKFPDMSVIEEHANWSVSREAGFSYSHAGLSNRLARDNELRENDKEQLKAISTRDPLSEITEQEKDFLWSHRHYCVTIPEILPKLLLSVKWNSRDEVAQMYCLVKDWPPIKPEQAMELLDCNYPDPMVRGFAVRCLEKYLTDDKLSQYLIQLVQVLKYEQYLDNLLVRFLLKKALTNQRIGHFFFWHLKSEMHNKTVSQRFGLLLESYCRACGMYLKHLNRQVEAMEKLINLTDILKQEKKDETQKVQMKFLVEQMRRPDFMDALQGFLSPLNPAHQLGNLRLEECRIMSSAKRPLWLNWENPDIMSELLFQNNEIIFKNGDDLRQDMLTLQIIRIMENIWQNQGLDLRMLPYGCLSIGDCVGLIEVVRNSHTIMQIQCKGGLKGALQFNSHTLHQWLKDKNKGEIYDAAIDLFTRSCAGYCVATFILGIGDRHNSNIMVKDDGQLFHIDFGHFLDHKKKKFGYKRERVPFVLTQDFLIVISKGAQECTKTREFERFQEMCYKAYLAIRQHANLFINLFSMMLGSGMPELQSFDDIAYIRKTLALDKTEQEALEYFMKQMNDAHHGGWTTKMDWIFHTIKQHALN
# assay_summary: PI3K enzyme inhibitory activity in the cell free assay (ADP-Glo Kinase Assay)
# condition_context: human recombinant PI3Kα, ATP 50 μM; read-out: PI3K alpha inhibition
Counter-ions that a name gives are not always drawn.

compound	IC50
CC(c1oc(=O)c2ccccc2c1C1=CCN(C(=O)C2CN(C)C2)CC1)n1nc(-c2cc(O)cc(F)c2)c2c(N)ncnc21 (stereo not drawn) [Example 151, formate]	> 1 µM
CC(c1oc(=O)c2ccccc2c1C1=CCN(C(=O)C2CCN(C)CC2)CC1)n1nc(-c2cc(O)cc(F)c2)c2c(N)ncnc21 (stereo not drawn) [Example 148, formate]	> 1 µM
CC(c1oc(=O)c2ccccc2c1C1=CC2CCC(C1)N2C)n1nc(-c2cc(O)cc(F)c2)c2c(N)ncnc21 (stereo not drawn) [Example 92, hydrochloride]	0.01 to 1 µM
CC(c1oc(=O)c2ccccc2c1-c1ccccc1)n1nc(-c2cnc(C(F)(F)F)c(O)c2)c2c(N)ncnc21 (stereo not drawn)	> 1 µM
CC(Nc1ncnc2[nH]cnc12)c1oc(=O)c2ccccc2c1-c1cnc(N)nc1 (stereo not drawn)	> 1 µM
CC(=O)N1CC=C(c2c(C(C)n3nc(-c4cncc(O)c4)c4c(N)ncnc43)oc(=O)c3ccccc23)CC1 (stereo not drawn)	0.01 to 1 µM
CC(c1oc(=O)c2ccccc2c1-c1cnc(N)s1)n1nc(-c2cc(O)cc(F)c2)c2c(N)ncnc21 (stereo not drawn) [Example 121, hydrochloride]	> 1 µM
CC(c1oc(=O)c2ccccc2c1-c1ccccc1)n1nc(I)c2c(N)ncnc21 (stereo not drawn) [Int D2]	> 1 µM
Nc1ncnc2c1c(-c1cncc(O)c1)nn2CC1=C(c2ccccc2)c2ccccc2CO1	0.01 to 1 µM
